- PROCEDURE SUMMARY: Solubility in buffer pH4, buffer pH2 and 0.01N HCl
- Format: physicochemical
- PARTICULARS: buffer pH2, pH 2.1, aqueous buffer, Buffer pH2; pH 2.1; read-out: Solubility
MEASURED METRIC: Solubility (µg/mL)
# unit: µg/mL | format: bare number

query: Quick check: Solubility of Cc1cc(/C=C/C#N)cc(C)c1Nc1ccnc(Nc2ccc(C#N)cc2)n1 [TMC278 polymorph I] ?
result: 6.4

From: patent US8426434B2
